Listing of recorded EC50 by entry.
Tested on: PC12 mHTT^Q103 cells
method-summary: Rescue of PC12 cells from mHTT^Q103 induced cell death (Alamar blue viability)
Assay type: cell-based
settings: Rattus norvegicus, PC-12; Table 5; read-out: Cell Viability Assay EC50
Dear colleague, please return just the value in µM, with no unit written.

{"columns": ["smiles-string", "output-unit", "measurement"],
 "data": [
  ["NC(=O)c1cccc(F)c1SSc1c(F)cccc1C(N)=O", "µM", 7.07],
  ["Cc1nnc2s[nH]c(=O)c2c1C", "µM", 12.2],
  ["COCCn1sc2ccccc2c1=O", "µM", 0.7]
]}

q: Quick one: EC50 for O=c1c2ccccc2sn1CN1CCN(c2ncccn2)CC1 ?
a: 0.416

q: Record: C[C@H](c1ccccc1)n1sc2ccccc2c1=O
a: 0.519

q: Next molecule up: CC(=O)c1ccc(N2CCN(Cn3sc4ccccc4c3=O)CC2)cc1
a: 0.514

###

method-summary: physchem
settings: NMP, organic solvent or mixture
observation-type: solubility (mg/mL)
I only need the number, in mg/mL, no unit after it.

q: Return reported solubility; argument: O=C(C1CC1)N1CCN(Cn2sc3ccccc3c2=O)CC1
a: 80

###

study-target: recombinant catalytic a domain of human PDI A1 (PDIa) (Homo sapiens, UniProt P07237)
Construct: made in house; host or cells: Escherichia coli BL21-Gold (DE3)
Sequence (P07237 with tags, fused parts or gaps): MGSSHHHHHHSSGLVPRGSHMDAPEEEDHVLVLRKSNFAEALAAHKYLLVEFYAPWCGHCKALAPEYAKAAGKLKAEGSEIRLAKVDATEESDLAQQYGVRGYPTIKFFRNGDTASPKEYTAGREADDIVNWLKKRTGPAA
method-summary: Insulin aggregation assay (PDIa reductase activity)
Type: biochemical
settings: Table 5
observation-type: Insulin Assay (either active or inactive)

Solved cases below.
{"columns": ["molecule", "study-target", "measurement"],
 "data": [
  ["O=C(C1CC1)N1CCN(Cn2sc3c(Cl)cccc3c2=O)CC1", "recombinant catalytic a domain of human PDI A1 (PDIa) (Homo sapiens, UniProt P07237)", "not active"],
  ["C[C@H](c1ccccc1)n1sc2ccccc2c1=O", "recombinant catalytic a domain of human PDI A1 (PDIa) (Homo sapiens, UniProt P07237)", "Active"],
  ["O=c1c2ccccc2sn1CN1CCOCC1", "recombinant catalytic a domain of human PDI A1 (PDIa) (Homo sapiens, UniProt P07237)", "Active"],
  ["O=c1[nH]sc2c(C(F)(F)F)cccc12", "recombinant catalytic a domain of human PDI A1 (PDIa) (Homo sapiens, UniProt P07237)", "not active"],
  ["O=c1c2cccnc2sn1CCN1CCOCC1", "recombinant catalytic a domain of human PDI A1 (PDIa) (Homo sapiens, UniProt P07237)", "Active"],
  ["O=c1c2cccnc2sn1CCN1CCCCC1", "recombinant catalytic a domain of human PDI A1 (PDIa) (Homo sapiens, UniProt P07237)", "Active"]
]}

The record that follows has no Insulin Assay (either active or inactive) shown yet.
q: Can you look up the measured Insulin Assay (either active or inactive) of O=c1c2ccccc2sn1-c1ccccc1 for me?
a: not active

###

# Kd per entry
study-target: human catalytic PDI A1 a domain (PDIa) (Homo sapiens)
Construct: made in house; host or cells: Escherichia coli BL21-Gold (DE3)
method-summary: Isothermal titration calorimetry (ITC) binding to PDIa
settings: PDIa, first site, Table 4; read-out: ITC KD1 (two binding site)
Only the number, expressed in nM, is required.

{"columns": ["compound", "measurement"],
 "data": [
  ["O=c1c2ccccc2sn1Cc1ccccc1 [LC-5, 2-benzylbenzo[d]isothiazol-3(2H)-one]", 42.7]
]}

q: Please give the measured Kd for this compound: O=c1c2ccccc2[se]n1-c1ccccc1 [Ebselen, reference compound]
a: 5.2

###

method-summary: physchem
settings: DMSO, organic solvent or mixture
observation-type: solubility (mM)
Form entry: value (mM) — number only.

{"columns": ["smiles-string", "solubility / mM"],
 "data": [
  ["CC(C)(C)OC(=O)N1CCC(COc2nsc3ccccc23)CC1", 50],
  ["O=c1[nH]sc2ncccc12", 50],
  ["O=c1c2ccccc2sn1-c1ccc(N2CCOCC2)cc1", 30],
  ["O=c1c2ccccc2sn1-c1ccccc1", 50],
  ["Cc1cc(C)c2c(=O)n(CN3CCN(C(=O)C4CC4)CC3)sc2n1", 25]
]}

q: Look up solubility: O=C(C1CC1)N1CCN(Cn2sc3ccc(Cl)cc3c2=O)CC1
a: 20

q: Query Cc1nc2sn(CN3CCN(C(=O)C4CC4)CC3)c(=O)c2c(C)c1C next
a: 10

q: What do we get for O=C(C1CC1)N1CCN(C(=O)n2sc3ccccc3c2=O)CC1 ?
a: 30

q: Entry O=C(Nc1ccccc1)n1sc2ccccc2c1=O please
a: 50

q: // same read-out, input: CC(C)(C)OC(=O)NC1CCN(Cn2sc3ccccc3c2=O)CC1
a: 50

q: What about Cc1nc2s[nH]c(=O)c2c(C)c1C ?
a: 10

###

study-target: human catalytic PDI A1 a domain (PDIa) (Homo sapiens)
Construct: made in house; host or cells: Escherichia coli BL21-Gold (DE3)
method-summary: Isothermal titration calorimetry (ITC) binding to PDIa
settings: PDIa, Table 5; read-out: ITC Assay KD
Catalogue of pKd readings, one per entry.
Conceptually, pKd converts a concentration in mol/L into minus its log10.

Worked examples follow.
{"columns": ["smiles-string", "study-target", "measurement"],
 "data": [
  ["O=c1c2ccccc2sn1CN1CCC(O)CC1", "human catalytic PDI A1 a domain (PDIa) (Homo sapiens)", 6.67],
  ["CC(C)(C)OC(=O)NC1CCN(Cn2sc3ccccc3c2=O)CC1", "human catalytic PDI A1 a domain (PDIa) (Homo sapiens)", 7.03],
  ["O=c1c2ccccc2sn1CN1CCSCC1", "human catalytic PDI A1 a domain (PDIa) (Homo sapiens)", 7.04]
]}

q: Reported pKd, molecule CC(=O)c1ccc(N2CCN(Cn3sc4ccccc4c3=O)CC2)cc1 : ____
a: 6.72

q: And then O=c1c2ccccc2sn1CN1CCC(CO)CC1 , what is it?
a: 6.58

###

method-summary: Mouse microsome stability assay
Type: in vitro ADME
settings: mouse, liver microsomes, pH 7.4, mouse liver microsomes; read-out: half-life
observation-type: half-life at 0.5 μM

q: Sample O=C(C1CC1)N1CCN(Cn2sc3ccccc3c2=O)CC1 — what was its half-life at 0.5 μM?
a: > 1.5 h

###

study-target: human catalytic PDI A1 a domain (PDIa) (Homo sapiens, UniProt P07237)
Construct: made in house; host or cells: Escherichia coli BL21-Gold (DE3)
Sequence (P07237 with tags, fused parts or gaps): as above
method-summary: Isothermal titration calorimetry (ITC) binding to PDIa
settings: reduced PDIa 40 μM, compound 400 μM, 25° C.; read-out: dissociation constant (Kd)
Experimental: All ITC experiments were carried out at 25° C. on MicoCal Auto-ITC200 system (GE Healthcare). Reduced PDIa was dialyzed into ITC buffer (20 mM sodium phosphate buffer pH 7.8) and loaded into a sample cell at 40 μM concentration. […] Data were analyzed using a one-site binding model in Origin 7.1 software. […] Gibbs free energy, ΔG, was calculated from equation ΔG=ΔH−TΔS. All other parameters, Ka, n, ΔH, ΔS, were determined directly from the titration data. […]
observation-type: pKd
Interpret pKd as the negative base-10 log of the concentration measured in mol/L.

{"columns": ["molecule", "pKd"],
 "data": [
  ["O=C(C1CC1)N1CCN(Cn2oc3ccccc3c2=O)CC1 [Oxy-LOC14]", 5.61]
]}

Lab note: next molecule to report on.
q: Provide the documented pKd with human catalytic PDI A1 a domain (PDIa) (Homo sapiens, UniProt P07237) as the system for O=C(C1CC1)N1CCN(Cn2sc3ccccc3c2=O)CC1 [LOC14]
a: 7.21

###

Measured pEC50 by item
Test system: PC12 mHTT^Q103 cells
method-summary: Rescue of PC12 cells from mHTT^Q103 induced cell death (Alamar blue viability)
Assay type: cell-based
settings: Rattus norvegicus, PC-12; Table 5; read-out: Cell Viability Assay EC50
Schema: pEC50 number; meaning minus log10 of the concentration expressed in molar units.

{"columns": ["compound", "observation-type", "measurement"],
 "data": [
  ["O=C(Nc1ccc(Oc2ccccc2)cc1)c1ccccc1S [LC-33]", "pEC50", 5.53],
  ["Cc1nnc2sn(C(C)N3CCC(C(=O)C4CC4)CC3)c(=O)c2c1C (centres unmarked) [LC-59]", "pEC50", 4.97],
  ["O=c1c2ccccc2sn1-c1ccc(N2CCOCC2)cc1 [LC-27]", "pEC50", 5.74],
  ["O=C(C1CC1)N1CCN(Cn2sc3c(F)cccc3c2=O)CC1 [LC-43]", "pEC50", 5.13],
  ["Cc1cc(C)c2c(=O)ssc2n1 [LC-50]", "pEC50", 5.29]
]}

q: Given the compound O=c1c2ccccc2sn1-c1cccc(F)c1 [LC-31] , what is its reported pEC50?
a: 5.75

q: What would you report for CN1CCN(Cn2sc3ccccc3c2=O)CC1 [LC-2] ?
a: 6.38

q: Next up: O=C(C1CC1)N1CCN(Cn2sc3ccc(Cl)cc3c2=O)CC1 [LC-15]
a: 6.33

q: Would you mind doing C[C@@H](NC(=O)c1ccccc1S)c1ccccc1 [LC-28] as well?
a: 6.09

q: Then what about the compound O=c1c2ccccc2sn1-c1ccc(Cc2ccccc2)cc1 [LC-25] ?
a: 5.80
